- system: EGFR (UniProt P00533)
- Sequence (P00533 whole entry, looked up): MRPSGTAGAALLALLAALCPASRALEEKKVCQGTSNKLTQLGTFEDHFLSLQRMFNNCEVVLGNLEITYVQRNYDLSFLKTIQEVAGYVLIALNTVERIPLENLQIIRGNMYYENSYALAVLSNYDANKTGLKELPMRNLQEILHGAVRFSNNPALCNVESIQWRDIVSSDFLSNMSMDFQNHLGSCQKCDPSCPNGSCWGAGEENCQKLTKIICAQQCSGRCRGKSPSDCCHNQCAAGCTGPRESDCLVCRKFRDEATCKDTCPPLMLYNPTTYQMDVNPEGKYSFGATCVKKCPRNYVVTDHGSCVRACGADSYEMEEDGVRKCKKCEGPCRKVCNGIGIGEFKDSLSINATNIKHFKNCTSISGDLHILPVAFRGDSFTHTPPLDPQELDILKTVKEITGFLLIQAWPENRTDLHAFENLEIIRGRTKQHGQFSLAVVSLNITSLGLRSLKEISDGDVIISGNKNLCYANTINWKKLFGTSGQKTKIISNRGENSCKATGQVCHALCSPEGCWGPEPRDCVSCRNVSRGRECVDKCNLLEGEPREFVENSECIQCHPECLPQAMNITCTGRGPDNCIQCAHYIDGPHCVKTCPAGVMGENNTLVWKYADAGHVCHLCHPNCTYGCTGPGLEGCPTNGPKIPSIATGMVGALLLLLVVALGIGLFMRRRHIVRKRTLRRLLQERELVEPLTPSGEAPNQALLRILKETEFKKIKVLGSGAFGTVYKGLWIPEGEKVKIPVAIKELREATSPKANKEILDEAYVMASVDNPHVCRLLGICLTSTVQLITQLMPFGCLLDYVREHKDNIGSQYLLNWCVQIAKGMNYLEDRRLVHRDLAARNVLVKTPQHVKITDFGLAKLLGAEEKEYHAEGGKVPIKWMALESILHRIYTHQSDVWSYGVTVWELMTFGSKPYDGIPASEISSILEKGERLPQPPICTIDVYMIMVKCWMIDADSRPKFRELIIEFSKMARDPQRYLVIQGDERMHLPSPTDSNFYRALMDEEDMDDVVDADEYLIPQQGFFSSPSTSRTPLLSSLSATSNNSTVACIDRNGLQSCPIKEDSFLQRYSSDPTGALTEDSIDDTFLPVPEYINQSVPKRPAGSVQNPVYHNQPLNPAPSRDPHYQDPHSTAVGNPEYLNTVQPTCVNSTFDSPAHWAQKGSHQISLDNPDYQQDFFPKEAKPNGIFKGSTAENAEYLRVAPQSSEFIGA
- assay-overview: Inhibition of EGFR Kinase Activity

{"compound": "COc1ccc(N2C(=O)N(c3ccc(OC)cc3)C(C)c3cnc(Nc4ccccc4)nc32)cc1 (stereo not drawn)", "IC50": "< 10 µM"}
{"compound": "CCC1c2cnc(Nc3ccccc3)nc2N(c2ccccc2)C(=O)N1c1ccc(OC)cc1 (stereo not drawn)", "IC50": "< 10 µM"}
{"compound": "COc1ccc(N2C(=O)N([C@H](C)CO)c3nc(Nc4ccccc4)ncc3[C@@H]2C)cc1", "IC50": "< 10 µM"}

This collection of values is drawn from the Kinase Knowledgebase extract (Sharma et al. 2016).
